Dear all, I have gathered published IC50 values for 11-beta-hydroxysteroid dehydrogenase 1 (Homo sapiens); the list follows.
OUTCOME MEASURE: IC50 (nM)

A = CC(=O)c1ccc(C2C(C)(C)OC(N[C@@H](C)c3ccccc3F)=NS2(=O)=O)cc1 (stereo partly shown)
B = CC(C)N(C(=O)CCCOc1ccc(Cl)cc1Cl)C1C2CC3CC1CC(O)(C3)C2 (stereo not shown)
C = Cc1ccccc1S(=O)(=O)N1CC2(C)CC1CC(C)(C)C2 (stereo not shown)
D = CN(C(=O)CCCOc1ccc(Cl)cc1Cl)C1CCC(S(N)(=O)=O)CC1 (stereo not shown)
**Q:** Sort key: IC50. Order: high to low. Scope: items listed above. Would you mind listing the labels in the order asked for?
**A:** C, B, A, D

----------
Here is a set of molecules with reported IC50 for 11-beta-hydroxysteroid dehydrogenase 1 (Homo sapiens, UniProt P28845), compiled from the literature.
OUTCOME MEASURE: IC50 (nM)

- MOLECULE: "COc1ccc2c(c1)N(C(=O)N[C@H]1C3CC4CC1C[C@](O)(C4)C3)CCC2"
  IC50 [nM]: 1.2
- MOLECULE: "CC1(C)OC(N[C@@H](CCO)c2ccccc2)=NS(=O)(=O)C1c1cccc(C(F)(F)F)c1 (some centres unmarked)"
  IC50 [nM]: 22
- MOLECULE: "O=C(NC1C2CC3CC(C2)CC1C3)N1CCOc2ccccc21 (centres unmarked)"
  IC50 [nM]: 1.1

A = NC(=O)C12CC3CC(C1)C(NC(=O)C1(NS(=O)(=O)c4cc(Cl)c(Cl)cc4F)CC1)C(C3)C2 (centres unmarked)
B = COC(=O)C12CC3CC(C1)C(NC(=O)CCCOc1ccc(Cl)cc1Cl)C(C3)C2 (centres unmarked)
C = CC1(C)OC(N[C@@H](CCO)c2ccccc2)=NS(=O)(=O)C1c1ccccc1Cl (some centres unmarked)
**Q:** Arrange these molecules by their IC50, starting with the largest number. Please respond with the labels ordered as the question requires.
**A:** A, B, C

----------
The compounds below each have a reported IC50 tested on 11-beta-hydroxysteroid dehydrogenase 1 (Homo sapiens); the values come from various publications.
OUTCOME MEASURE: IC50 (nM)

- COMPOUND: "CC(=O)c1ccc(C2C(C)(C)OC(N[C@@H](CCO)c3ccccc3F)=NS2(=O)=O)cc1 (some centres unmarked)"
  OUTCOME MEASURE: "IC50"
  REPORTED: 10
- COMPOUND: "COC(=O)C12CC3CC(CC(NC(=O)CCCOc4ccccc4)(C3)C1)C2"
  OUTCOME MEASURE: "IC50"
  REPORTED: 54
- COMPOUND: "Cc1cc(S(=O)(=O)NC2(C(=O)NC3C4CC5CC3CC(C(N)=O)(C5)C4)CC2)c(F)cc1Cl (centres unmarked)"
  OUTCOME MEASURE: "IC50"
  REPORTED: 34.7
- COMPOUND: "CC1(C)OC(N[C@@H](CCO)c2ccccc2F)=NS(=O)(=O)[C@@H]1c1ccc(-c2ccnc(C#N)c2)cc1"
  OUTCOME MEASURE: "IC50"
  REPORTED: 4
- COMPOUND: "Cc1c(Cl)cccc1S(=O)(=O)NCC1(C(=O)NC2C3CC4CC(C3)CC2C4)CC1 (centres unmarked)"
  OUTCOME MEASURE: "IC50"
  REPORTED: 14.2
- COMPOUND: "NC(=O)C12CC3CC(C1)C(NC(=O)c1cccc(NS(=O)(=O)c4ccccc4C(F)(F)F)c1)C(C3)C2 (centres unmarked)"
  OUTCOME MEASURE: "IC50"
  REPORTED: 15.3
- COMPOUND: "CC(C)N(C(=O)CCCOc1ccccc1)C1C2CC3CC1CC(O)(C3)C2 (centres unmarked)"
  OUTCOME MEASURE: "IC50"
  REPORTED: 141
- COMPOUND: "CC1(C)CC2CC(C)(CN2S(=O)(=O)c2ccc(C#N)cc2)C1 (centres unmarked)"
  OUTCOME MEASURE: "IC50"
  REPORTED: 126

I = CC1(C)OC(NC2CCCCC2)=NS(=O)(=O)C1c1ccccc1 (centres unmarked)
II = CN(C1=NC(=O)C2CCCCCC2S1)C(C)(C)C (centres unmarked)
**Q:** Which one would you say has the larger IC50 value: I , or II ? Respond with the label that goes with your answer.
**A:** II
(II: 190 nM, I: 113 nM)
